System: SK-MEL-28 melanoma
Test: NCI tumour cell line growth inhibition, 384-well format
PARAMETER: GI50

1. CC1=C(/C=C/C(C)=C/C=C/C(C)=C/C(=O)O)C(C)(C)CCC1: 47.1 µM
2. NS(=O)(=O)NCCNc1nonc1C(=Nc1ccc(F)c(Br)c1)NO: 42.7 µM
3. CCn1c(-c2nonc2N)nc2c(C#CC(C)(C)O)ncc(OC[C@H]3CCCNC3)c21: 4.69 µM
4. COc1cc2nccc(Oc3ccc(NC(=O)Nc4cc(C)on4)c(Cl)c3)c2cc1OC: 4.26 µM

###

System: KM12 colon
Assay: NCI tumour cell line growth inhibition, 384-well format; in the data active means GI50 below about 0.43 µM; inactive means the rest
Possible outcomes: active, inactive

1) CCn1c(-c2nonc2N)nc2c(C#CC(C)(C)O)ncc(OC[C@H]3CCCNC3)c21: active
2) COc1cc2nccc(Oc3ccc(NC(=O)Nc4cc(C)on4)c(Cl)c3)c2cc1OC: active
3) CC1(N)CCN(c2cnc(-c3cccc(Cl)c3Cl)c(N)n2)CC1: inactive
4) Cc1ccc(NS(=O)(=O)c2cccc(C#N)c2)c2[nH]cc(C#N)c12: inactive
5) NS(=O)(=O)NCCNc1nonc1C(=Nc1ccc(F)c(Br)c1)NO: inactive
